molecular target: Cytochrome P450 1A2 (Homo sapiens); test: p450-cyp1a2 (AID 410); settings: recombinant CYP1A2, luciferin-ME demethylation, luminescence; series mostly up to 11.4 µM
Results filed as inconclusive are left out. Active and inactive are the calls of the source. The call rests on the fitted dose curve.
Outcomes: true (1) = active, false (0) = inactive

COMPOUND	TARGET_DESC	CLASS_NAME
O=S(=O)(c1ccccc1)N1CCC[C@@]2(CCN(Cc3ccccc3)C2)C1	Cytochrome P450 1A2 (Homo sapiens)	true (1)
O=C(O)/C=C\C(=O)Nc1cccc2c1-c1ccccc1C2=O	Cytochrome P450 1A2 (Homo sapiens)	true (1)
O=C(O)CCC(=O)c1ccc2ccc3cccc4ccc1c2c34	Cytochrome P450 1A2 (Homo sapiens)	true (1)
O=C(O)NCC1CCCCC1 (tested in a mixture with another compound)	Cytochrome P450 1A2 (Homo sapiens)	false (0)
Nc1nc(SCc2ccc([N+](=O)[O-])cc2)c2ncn([C@@H]3O[C@@H](CO)[C@@H](O)[C@H]3O)c2n1	Cytochrome P450 1A2 (Homo sapiens)	false (0)
Cc1cc(C2(c3cc(C)c(O)c(C(=O)O)c3)OS(=O)(=O)c3ccccc32)cc(C(=O)O)c1O	Cytochrome P450 1A2 (Homo sapiens)	false (0)
Cc1ccc([C@@H](O)c2cnc(C)n2Cc2ccccc2)cc1	Cytochrome P450 1A2 (Homo sapiens)	false (0)
CN[C@]1(C)[C@@H]2CC[C@@H](C2)C1(C)C	Cytochrome P450 1A2 (Homo sapiens)	false (0)
COc1cc(O)c2c(O)c3c(c4c2c1[C@@]1(C4)C(C)=CCCC1(C)C)[C@H](O)[C@@]1(O)CC(=O)C(C(N)=O)=C(O)[C@]1(O)C3=O	Cytochrome P450 1A2 (Homo sapiens)	true (1)
NCCNS(=O)(=O)c1ccc(N)cc1	Cytochrome P450 1A2 (Homo sapiens)	false (0)
Cc1cc(C)c2c(SCc3ccc(Cl)cc3Cl)nc(N)nc2n1	Cytochrome P450 1A2 (Homo sapiens)	true (1)
Clc1ccc(-c2noc(CN3CCCCC3)n2)cc1	Cytochrome P450 1A2 (Homo sapiens)	true (1)
N[C@H](COP(=O)(O)O)C(=O)O	Cytochrome P450 1A2 (Homo sapiens)	false (0)
O=C(O)c1ccccc1C(=O)Nc1cc2c(cc1Br)-c1ccccc1C2=O	Cytochrome P450 1A2 (Homo sapiens)	true (1)
O=C1O[C@@H]([C@H](O)[C@H](O)[C@H](O)CO)[C@@H](O)[C@@H]1O	Cytochrome P450 1A2 (Homo sapiens)	false (0)
Nc1c(S(N)(=O)=O)cc(S(N)(=O)=O)cc1S(N)(=O)=O	Cytochrome P450 1A2 (Homo sapiens)	false (0)
Cn1c(=O)c2[nH]c(CCCCc3nc4ccccc4[nH]3)nc2n(C)c1=O	Cytochrome P450 1A2 (Homo sapiens)	false (0)
CC[C@@H]1CN2CCc3cc(OC)c(OC)cc3[C@H]2C[C@@H]1C[C@@H]1NCCc2cc(OC)c(OC)cc21	Cytochrome P450 1A2 (Homo sapiens)	false (0)
c1ccc2c(CSCc3cccc4ccccc34)cccc2c1	Cytochrome P450 1A2 (Homo sapiens)	true (1)
O=CN[C@@H](Cc1cnc[nH]1)C(=O)O	Cytochrome P450 1A2 (Homo sapiens)	false (0)
CN(C)Cc1ccc(C(C)(C)C)cc1-c1cc(C(C)(C)C)ccc1CN(C)C	Cytochrome P450 1A2 (Homo sapiens)	true (1)
